Tested on: Hlr c-Jun HeLa cells
Experiment: C-Jun reporter assay (Dual-Luciferase)
Format: cell-based
Details: Homo sapiens, Hlr c-Jun HeLa cells transfected with pMEKK1
parameter measured: inhibition at 10 µM

Examples with answers:
{"compound": "O=C(NCc1ccc(S(=O)(=O)N2CCC(n3cnc4ccccc43)CC2)s1)c1ccc(Cl)cc1 [Example 109]", "system": "Hlr c-Jun HeLa cells", "inhibition at 10 µM": "> 30%"}
{"compound": "O=C(NCc1ccc(S(=O)(=O)N2CCC(C(=O)c3ccc(F)cc3F)CC2)s1)c1ccc(Cl)cc1 [Example 37]", "system": "Hlr c-Jun HeLa cells", "inhibition at 10 µM": "> 30%"}

Find the recorded inhibition at 10 µM belonging to O=C(NCc1ccc(S(=O)(=O)N2CCN(C(=O)c3cccc4ccccc34)CC2)s1)c1ccc(Cl)cc1 [Example 168] and report it.
> 30%
